- method summary: MTT cytotoxicity assay, HEK-293 cell line
- Assay type: cell-based
- conditions used: human, HEK-293 cells, final concentration of 50 μM
readout kind: cytotoxicity at 24 h, 50 µM (%)
// return numeric value only (unit: %, not printed)

Can you share its cytotoxicity at 24 h, 50 µM? I mean this molecule: "O=C(NC(=S)Nc1ccc(Br)cc1)C12CC3CC(CC(C3)C1)C2" 18.7

Also "CN(C)CCCNC(=S)NC(=O)C12CC3CC(CC(C3)C1)C2" , if possible. 5.16

Also "O=C(NC(=S)Nc1cccc2cccnc12)C12CC3CC(CC(C3)C1)C2" , if possible. 17.6

Also "COc1ccc(NC(=S)NC(=O)C23CC4CC(CC(C4)C2)C3)cc1OC" , if possible. 7.2

Also "O=C(NC(=S)Nc1ccc(O)cc1)C12CC3CC(CC(C3)C1)C2" , if possible. 3.02

---

- method summary: MTT cytotoxicity assay, human 1321N1 astrocytoma cell line
- Assay type: cell-based
- conditions used: human, 1321N1 astrocytoma cells, final concentration of 50 μM
Entries and their cytotoxicity at 24 h, 50 µM
// return numeric value only (unit: %, not printed)

| compound | unit | measured number |
| --- | --- | --- |
| COc1ccc(NC(=S)NC(=O)C23CC4CC(CC(C4)C2)C3)cc1OC [Ik] | % | 19.4 |

Can you share its cytotoxicity at 24 h, 50 µM? I mean this compound: Cc1ccc(C(=O)Nc2ccc(S(=O)(=O)O)c3cc(S(=O)(=O)O)cc(S(=O)(=O)O)c23)cc1NC(=O)c1cccc(NC(=O)Nc2cccc(C(=O)Nc3cc(C(=O)Nc4ccc(S(=O)(=O)O)c5cc(S(=O)(=O)O)cc(S(=O)(=O)O)c45)ccc3C)c2)c1 [Suramin, reference compound] 18.6

Also CN(C)CCCNC(=S)NC(=O)C12CC3CC(CC(C3)C1)C2 [Ir] , if possible. 10.1

Also O=C(NC(=S)Nc1cc(Br)ccc1Br)C12CC3CC(CC(C3)C1)C2 [Iq] , if possible. 21.2

---

- target entity: h-P2X4 (Homo sapiens, UniProt Q99571)
- Sequence (Q99571 whole entry): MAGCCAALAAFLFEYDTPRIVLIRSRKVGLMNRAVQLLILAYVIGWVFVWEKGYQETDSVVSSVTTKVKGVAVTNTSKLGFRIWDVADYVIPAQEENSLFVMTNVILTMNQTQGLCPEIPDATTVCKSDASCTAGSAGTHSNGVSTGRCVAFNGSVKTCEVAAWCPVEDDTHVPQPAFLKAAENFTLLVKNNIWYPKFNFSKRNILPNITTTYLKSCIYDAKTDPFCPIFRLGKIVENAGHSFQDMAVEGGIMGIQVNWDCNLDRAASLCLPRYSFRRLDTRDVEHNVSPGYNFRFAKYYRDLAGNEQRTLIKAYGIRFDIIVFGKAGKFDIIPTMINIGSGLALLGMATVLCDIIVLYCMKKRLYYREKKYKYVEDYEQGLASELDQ
- method summary: Mode of receptor inhibition, ATP dose-response curve at h-P2X4R
- conditions used: ATP without inhibitor; read-out: EC50 of ATP induced response
readout kind: EC50
Answer shape: numeric part, then the unit.

Test system h-P2X4 (Homo sapiens, UniProt Q99571); read-out EC50; what value for Nc1ncnc2c1ncn2[C@@H]1O[C@H](COP(=O)(O)OP(=O)(O)OP(=O)(O)O)[C@@H](O)[C@H]1O [ATP, reference compound] ? 5.45 µM

---

- target entity: h-P2X5 (Homo sapiens, UniProt Q93086)
- Sequence (Q93086 whole entry): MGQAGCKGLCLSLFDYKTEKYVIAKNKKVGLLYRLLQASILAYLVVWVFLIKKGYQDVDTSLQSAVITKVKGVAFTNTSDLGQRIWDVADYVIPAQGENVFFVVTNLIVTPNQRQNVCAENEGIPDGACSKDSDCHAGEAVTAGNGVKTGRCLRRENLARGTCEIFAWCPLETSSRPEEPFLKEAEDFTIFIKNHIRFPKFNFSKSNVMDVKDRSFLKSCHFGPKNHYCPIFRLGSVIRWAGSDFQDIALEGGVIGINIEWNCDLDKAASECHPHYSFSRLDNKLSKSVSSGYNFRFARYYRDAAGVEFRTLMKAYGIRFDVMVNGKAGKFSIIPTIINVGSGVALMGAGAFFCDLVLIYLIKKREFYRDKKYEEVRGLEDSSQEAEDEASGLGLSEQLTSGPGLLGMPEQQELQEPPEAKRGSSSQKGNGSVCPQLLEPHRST
- method summary: Ca2+ flux assay h-P2X5
- conditions used: read-out: h-P2X5 % Inhibition
readout kind: inhibition at 50 µM (%)
// return numeric value only (unit: %, not printed)

Guide cases for inhibition at 50 µM, answers given:
| structure notation | measured number |
| --- | --- |
| Cc1cc(Br)ccc1NC(=S)NC(=O)C12CC3CC(CC(C3)C1)C2 | 27.1 |
| O=C(NC(=S)Nc1cccc(O)c1)C12CC3CC(CC(C3)C1)C2 | 43.6 |
| CC(C)c1ccc(NC(=S)NC(=O)C23CC4CC(CC(C4)C2)C3)c(Br)c1 | 12.4 |

Kindly review the next compound as well.
Test system h-P2X5 (Homo sapiens, UniProt Q93086); read-out inhibition at 50 µM; what value for "O=C(NC(=S)Nc1cccnc1Cl)C12CC3CC(CC(C3)C1)C2" ? 25.5
